Task for the reader: assign each of the following variants its reported abundance fitness.
B1: Max-interacting protein 1, residues 70 to 120; numbered along this chain, P50539 (parent)
chain: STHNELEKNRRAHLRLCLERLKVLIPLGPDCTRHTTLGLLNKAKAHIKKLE

Variants of: B1
Test: abundance fitness (aPCA) (normalised: wild type 0, dead -1); higher = more abundant; growth selection in yeast, the domain comes from the species named
Details: Homo sapiens
One number for each entry.

Here is how some variants turned out for abundance fitness.
mutantCode	abundance fitness
H13Q	-0.086
T32A	0.163
G28R	0.122
G38A	-0.055
K8M	-0.511
T36C	0.085
L21T	-0.832
R33S	-0.44

Hi! Can you tell me abundance fitness for each of these variants?
1. L6C
2. A45H
3. L16W
4. L18A
5. C17F
6. T32I
7. N4L
8. I25M

Response line:
-0.123
-0.168
0.07
-0.275
0.048
0.139
-0.48
-0.228
